Data provenance: patent US20130131116A1

In this section, each of the compounds is paired with its reported melting point.

Field: example entries. Status: answers known.
1. CC(=O)N(C)N(C)c1cccc(C2=NOC(c3cc(Cl)cc(Cl)c3)(C(F)(F)F)C2)c1 (centres unmarked): 151 °C
2. CCC(=O)NNc1cc(C2=NOC(c3cc(Cl)cc(Cl)c3)(C(F)(F)F)C2)ccc1Cl (centres unmarked): 92 °C
3. CCCC(=O)NNc1cc(C2=NOC(c3cc(Cl)cc(Cl)c3)(C(F)(F)F)C2)ccc1Cl (centres unmarked): 82 °C
4. CC(=O)N(NC(=O)C1CC1)c1cc(C2=NOC(c3cc(Cl)cc(Cl)c3)(C(F)(F)F)C2)ccc1Cl (centres unmarked): 160 °C
5. O=C(NNc1cc(C2=NOC(c3cc(Cl)cc(Cl)c3)(C(F)(F)F)C2)ccc1Cl)Nc1ccc([N+](=O)[O-])cc1 (centres unmarked): 201 °C

As a next step, examine the compound that follows.
Fill in reported melting point for this entry: O=C(NNc1cc(C2=NOC(c3cc(Cl)cc(Cl)c3)(C(F)(F)F)C2)ccc1Cl)Nc1ccccc1 (centres unmarked)
131 °C

###

measured-metric: melting point (°C)
A number alone suffices; assume °C.

1) O=C(NNc1cc(C2=NOC(c3cc(Cl)cc(Cl)c3)(C(F)(F)F)C2)ccc1Cl)c1cccnc1 (centres unmarked): 205
2) Cc1ccc(C2=NOC(c3cc(Cl)cc(Cl)c3)(C(F)(F)F)C2)cc1NNC(=O)OC(C)C (centres unmarked): 71
3) CC(C)(C)OC(=O)N(NC(=O)C1CC1)c1cc(C2=NOC(c3cc(Cl)cc(Cl)c3)(C(F)(F)F)C2)ccc1Cl (centres unmarked): 180
4) CC(=O)N(C)Nc1cccc(C2=NOC(c3cc(Cl)cc(Cl)c3)(C(F)(F)F)C2)c1 (centres unmarked): 88
5) O=C(CCC(F)(F)F)NN(C(=O)c1ccccc1)c1cc(C2=NOC(c3cc(Cl)cc(Cl)c3)(C(F)(F)F)C2)ccc1Cl (centres unmarked): 157
6) CC(=O)NN(C(C)=O)c1cc(C2=NOC(c3cc(Cl)cc(Cl)c3)(C(F)(F)F)C2)ccc1Cl (centres unmarked): 108
7) CC(=O)NN(C(=O)c1ccccc1)c1cc(C2=NOC(c3cc(Cl)cc(Cl)c3)(C(F)(F)F)C2)ccc1Cl (centres unmarked): 142

Proceeding to the next compound to report its melting point.
Fill in reported melting point for this entry: O=C(/C=C/c1ccccc1)NNc1cc(C2=NOC(c3cc(Cl)cc(Cl)c3)(C(F)(F)F)C2)ccc1Cl (centres unmarked)
205

###

measured-metric: melting point (°C)
Just the number please, in °C, no unit attached.

Previously resolved entries follow.
1) CN(C)C(=O)NNc1cc(C2=NOC(c3cc(Cl)cc(Cl)c3)(C(F)(F)F)C2)ccc1Cl (centres unmarked): 212
2) O=C(NNc1cc(C2=NOC(c3cc(Cl)cc(Cl)c3)(C(F)(F)F)C2)ccc1Cl)C(F)(F)F (centres unmarked): 64
3) O=C(NNc1cc(C2=NOC(c3cc(Cl)cc(Cl)c3)(C(F)(F)F)C2)ccc1Cl)c1ccc([N+](=O)[O-])cc1 (centres unmarked): 231
4) C=CC(=O)NNc1cc(C2=NOC(c3cc(Cl)cc(Cl)c3)(C(F)(F)F)C2)ccc1Cl (centres unmarked): 90
5) COc1ccc(C(=O)NNc2cc(C3=NOC(c4cc(Cl)cc(Cl)c4)(C(F)(F)F)C3)ccc2Cl)cc1 (centres unmarked): 131
6) FC(F)(F)C1(c2cc(Cl)cc(Cl)c2)CC(c2ccc(Cl)c(NNC(=S)Nc3ccccc3)c2)=NO1 (centres unmarked): 213
7) C=CC(=O)NN(C(=O)OC(C)(C)C)c1cc(C2=NOC(c3cc(Cl)cc(Cl)c3)(C(F)(F)F)C2)ccc1Cl (centres unmarked): 119

Proceeding to the next compound to report its melting point.
State its melting point for this compound: CC(=O)N(NC(=O)c1ccccc1)c1cc(C2=NOC(c3cc(Cl)cc(Cl)c3)(C(F)(F)F)C2)ccc1Cl (centres unmarked)
107
